Reference source for all entries: a collection of fitness landscapes (doi:10.1126/science.1257360)

B1: PhoQ; a variant is named by its letters at X, in order, P23837 (parent)
chain: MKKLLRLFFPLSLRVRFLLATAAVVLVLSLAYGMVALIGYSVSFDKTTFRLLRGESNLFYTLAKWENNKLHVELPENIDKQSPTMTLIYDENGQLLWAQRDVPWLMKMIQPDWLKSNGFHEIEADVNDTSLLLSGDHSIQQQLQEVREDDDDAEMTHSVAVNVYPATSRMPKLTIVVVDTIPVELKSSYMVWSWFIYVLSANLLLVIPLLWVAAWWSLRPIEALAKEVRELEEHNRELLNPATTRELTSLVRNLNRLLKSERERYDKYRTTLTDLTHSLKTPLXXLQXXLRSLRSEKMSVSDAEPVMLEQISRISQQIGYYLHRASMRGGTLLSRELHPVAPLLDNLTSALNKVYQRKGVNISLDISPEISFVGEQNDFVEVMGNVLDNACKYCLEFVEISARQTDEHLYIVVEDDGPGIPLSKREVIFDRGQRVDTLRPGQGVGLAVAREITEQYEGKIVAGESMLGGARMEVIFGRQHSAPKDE

- Variants of: B1
- Experiment description: enrichment ratio after two sorts for PhoP signalling (ratio (wild type AVST 3.29)); higher = more functional
- Assay context: with PhoP (E. coli)
Over roughly 140,000 sequences, “enrichment ratio after two sorts for PhoP signalling” has its median near 0; the highest 2% begin near 11. The entries come from a sample that favours the highest values as a whole.
Form field: enrichment ratio (one value per entry).

{"Variant string": "YNDD", "enrichment ratio": "≤ 0.25"}
{"Variant string": "LLKV", "enrichment ratio": "≤ 0.25"}
{"Variant string": "PWRH", "enrichment ratio": "≤ 0.25"}
{"Variant string": "RGAV", "enrichment ratio": "≤ 0.25"}

Shifting focus to the variant that follows.
Query: Which enrichment ratio reading was recorded for the variant `YVCN` ?
Reply: ≤ 0.25
